Tested on: duodenum lumen enzymes
assay_context: pH 7.4
Starred links: 1 amine or outer side, 2 acyl side, 3 side chain; linkers in the order of their positions; H or OH if unused. Positions of bridges follow the written chain, without caps; N, C: chain ends. Groups on a side chain read outwards from the residue. Chains are numbered I, II in the order given. No end group written: not given here. *: point of attachment. Phe(Nα-CONH2) = NC(=O)N[C@@H](Cc1ccccc1)C(=O)*; C20 diacid = O=C(O)CCCCCCCCCCCCCCCCCCC(=O)*; C18 diacid = O=C(O)CCCCCCCCCCCCCCCCC(=O)*; C16 diacid = O=C(O)CCCCCCCCCCCCCCC(=O)*; NMe2Phe = CN(C)[C@@H](Cc1ccccc1)C(=O)*; γGlu = O=C(O)[C@H](CCC(=O)[*:2])N[*:1]; Hydantoyl = NC(=O)NCC(=O)*; AEEA = NCCOCCOCC(=O)O; Me2Gly = CN(C)CC(=O)*
experimental_readout: Duodenum degradation. Relative stability vs. A14E, B25H, desB30 human insulin

Data request: Tell us which Duodenum degradation. Relative stability vs. A14E, B25H, desB30 human insulin value is on record for I: NMe2Phe-VNQHLCGSHLVEALYLVCGERGFHYPK([γGlu-C16 diacid]) / II: Me2Gly-IVEQCCTSICSLEQLENYCN (disulfide I:6-II:6, I:18-II:19, II:5-II:10) [Example 8]
Data returned: 6.8

Data request: Read off the recorded Duodenum degradation. Relative stability vs. A14E, B25H, desB30 human insulin for I: {Phe(Nα-CONH2)}-VNQHLCGSHLVEALYLVCGERGFFYPK([γGlu-C16 diacid]) / II: Hydantoyl-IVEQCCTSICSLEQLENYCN (disulfide I:6-II:6, I:18-II:19, II:5-II:10) [Example 19]
Data returned: 3.0

Data request: Give recorded Duodenum degradation. Relative stability vs. A14E, B25H, desB30 human insulin. I: NMe2Phe-VNQHLCGSHLVEALYLVCGERGFHYPK([γGlu-C18 diacid]) / II: Me2Gly-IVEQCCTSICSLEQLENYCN (disulfide I:6-II:6, I:18-II:19, II:5-II:10) [Example 4]
Data returned: 8.6

Data request: Indicate the recorded Duodenum degradation. Relative stability vs. A14E, B25H, desB30 human insulin value for this substance: I: {Phe(Nα-CONH2)}-VNQHLCGSHLVEALHLVCGERGFFYPK([AEEA-AEEA-γGlu-C20 diacid]) / II: Hydantoyl-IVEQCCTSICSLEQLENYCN (disulfide I:6-II:6, I:18-II:19, II:5-II:10) [Example 30]
Data returned: 4.9

====

experimental_system: human insulin receptor (IR-A) (Homo sapiens)
Sequence (P06213 28-746 isoform P06213-2 limits assumed): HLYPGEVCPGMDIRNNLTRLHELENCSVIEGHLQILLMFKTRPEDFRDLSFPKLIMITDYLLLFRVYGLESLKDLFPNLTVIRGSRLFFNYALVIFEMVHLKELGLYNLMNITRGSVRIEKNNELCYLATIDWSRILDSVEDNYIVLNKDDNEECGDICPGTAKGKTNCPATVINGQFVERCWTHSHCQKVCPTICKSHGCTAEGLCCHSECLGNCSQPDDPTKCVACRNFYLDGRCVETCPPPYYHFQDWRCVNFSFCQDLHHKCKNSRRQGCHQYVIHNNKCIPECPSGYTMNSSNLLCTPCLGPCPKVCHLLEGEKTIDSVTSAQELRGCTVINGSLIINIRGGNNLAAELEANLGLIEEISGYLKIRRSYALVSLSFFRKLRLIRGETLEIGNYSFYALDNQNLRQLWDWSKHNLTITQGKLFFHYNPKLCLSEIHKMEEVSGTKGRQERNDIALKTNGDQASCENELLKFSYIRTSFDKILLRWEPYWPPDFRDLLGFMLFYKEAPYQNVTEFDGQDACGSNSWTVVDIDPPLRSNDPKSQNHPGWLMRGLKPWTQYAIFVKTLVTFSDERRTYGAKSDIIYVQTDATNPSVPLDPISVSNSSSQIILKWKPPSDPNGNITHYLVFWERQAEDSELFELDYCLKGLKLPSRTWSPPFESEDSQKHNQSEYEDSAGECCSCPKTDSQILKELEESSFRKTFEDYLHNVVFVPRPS
Sequence (P06213 763-1382 partner limits assumed): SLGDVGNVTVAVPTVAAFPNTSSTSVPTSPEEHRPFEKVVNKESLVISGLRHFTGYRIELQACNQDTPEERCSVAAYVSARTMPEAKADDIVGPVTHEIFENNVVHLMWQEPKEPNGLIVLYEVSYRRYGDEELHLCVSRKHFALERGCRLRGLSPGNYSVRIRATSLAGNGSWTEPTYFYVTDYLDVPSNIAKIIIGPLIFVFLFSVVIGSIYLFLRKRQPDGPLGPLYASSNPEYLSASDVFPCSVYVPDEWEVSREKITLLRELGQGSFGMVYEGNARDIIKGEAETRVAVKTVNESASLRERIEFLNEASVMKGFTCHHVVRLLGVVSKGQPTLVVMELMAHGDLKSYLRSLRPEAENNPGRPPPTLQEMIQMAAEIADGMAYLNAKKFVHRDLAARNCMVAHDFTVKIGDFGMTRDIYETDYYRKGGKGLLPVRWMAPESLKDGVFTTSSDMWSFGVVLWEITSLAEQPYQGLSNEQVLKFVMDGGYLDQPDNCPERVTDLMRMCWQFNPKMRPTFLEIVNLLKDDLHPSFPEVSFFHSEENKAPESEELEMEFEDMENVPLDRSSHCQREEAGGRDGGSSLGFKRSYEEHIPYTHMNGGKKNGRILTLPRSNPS
experiment_notes: Insulin receptor affinity, SPA antibody capture assay, 0% HSA
Format: binding
assay_context: relative to affinity of human insulin
Starred links: 1 amine or outer side, 2 acyl side, 3 side chain; linkers in the order of their positions; H or OH if unused. Positions of bridges follow the written chain, without caps; N, C: chain ends. Groups on a side chain read outwards from the residue. Chains are numbered I, II in the order given. No end group written: not given here. *: point of attachment. Phe(Nα-CONH2) = NC(=O)N[C@@H](Cc1ccccc1)C(=O)*; C20 diacid = O=C(O)CCCCCCCCCCCCCCCCCCC(=O)*; C18 diacid = O=C(O)CCCCCCCCCCCCCCCCC(=O)*; C16 diacid = O=C(O)CCCCCCCCCCCCCCC(=O)*; NMe2Phe = CN(C)[C@@H](Cc1ccccc1)C(=O)*; γGlu = O=C(O)[C@H](CCC(=O)[*:2])N[*:1]; X1 = CCN(CC)[C@@H](Cc1ccccc1)C(=O)*; Hydantoyl = NC(=O)NCC(=O)*; AEEA = NCCOCCOCC(=O)O; Me2Gly = CN(C)CC(=O)*; X2 = CCN(CC)CC(=O)*
experimental_readout: Relative IR-A affinity (@ 0% HSA) (%)
// return numeric value only (unit: %, not printed)

Data request: # return recorded Relative IR-A affinity (@ 0% HSA) (%) for input I: {Phe(Nα-CONH2)}-VNQHLCGSHLVEALYLVCGERGFFYPK([γGlu-C20 diacid]) / II: Hydantoyl-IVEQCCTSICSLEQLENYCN (disulfide I:6-II:6, I:18-II:19, II:5-II:10) [Example 21]
Data returned: 1.3

Data request: State, in one line, measured Relative IR-A affinity (@ 0% HSA) (%) of I: {Phe(Nα-CONH2)}-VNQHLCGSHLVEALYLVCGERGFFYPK([AEEA-AEEA-γGlu-C16 diacid]) / II: Hydantoyl-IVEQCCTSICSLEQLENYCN (disulfide I:6-II:6, I:18-II:19, II:5-II:10) [Example 20]
Data returned: 4.7

Data request: Report Relative IR-A affinity (@ 0% HSA) (%) for I: X1-VNQHLCGSHLVEALYLVCGERGFHYTPK([AEEA-AEEA-γGlu-C18 diacid]) / II: X2-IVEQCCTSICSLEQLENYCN (disulfide I:6-II:6, I:18-II:19, II:5-II:10) [Example 2]
Data returned: 1.7

Data request: For the substance I: NMe2Phe-VNQHLCGSHLVEALHLVCGERGFHYTPK([AEEA-AEEA-γGlu-C20 diacid]) / II: Me2Gly-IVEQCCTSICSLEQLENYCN (disulfide I:6-II:6, I:18-II:19, II:5-II:10) [Example 7] , give its measured Relative IR-A affinity (@ 0% HSA) (%) value.
Data returned: 0.5
